Attribution: paper PMC10294837

Target: MAO-B (Sus scrofa)
Sequence (Q6PLK3 1-520): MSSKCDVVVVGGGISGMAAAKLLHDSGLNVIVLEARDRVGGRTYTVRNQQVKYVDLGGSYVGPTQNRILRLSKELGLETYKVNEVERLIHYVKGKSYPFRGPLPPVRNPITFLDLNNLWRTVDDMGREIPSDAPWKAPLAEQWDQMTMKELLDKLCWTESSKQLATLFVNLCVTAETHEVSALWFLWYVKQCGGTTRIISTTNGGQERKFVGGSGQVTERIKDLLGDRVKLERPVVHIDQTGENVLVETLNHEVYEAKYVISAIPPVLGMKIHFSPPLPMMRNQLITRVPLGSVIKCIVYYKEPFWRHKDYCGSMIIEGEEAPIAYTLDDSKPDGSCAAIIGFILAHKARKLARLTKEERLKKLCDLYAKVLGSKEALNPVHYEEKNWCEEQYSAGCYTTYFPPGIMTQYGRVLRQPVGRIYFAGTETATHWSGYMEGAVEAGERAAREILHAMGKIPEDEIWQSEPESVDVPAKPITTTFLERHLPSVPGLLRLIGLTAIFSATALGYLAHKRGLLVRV
pIC50: −log10 of the molar value.
attribute.measured: pIC50

compound	result
Fc1ccc([C@@H]2CCNC[C@H]2COc2ccc3c(c2)OCO3)cc1 [paroxetine]	5.66
CN(C)CCC[C@@]1(c2ccc(F)cc2)OCc2cc(C#N)ccc21 [escitalopram]	4.82
CC(NC(C)(C)C)C(=O)c1cccc(Cl)c1 (stereo not drawn) [bupropion]	4.50
